Target: hOT7T175 (Homo sapiens, UniProt Q969F8, L364H)
Sequence (Q969F8 whole entry L364H): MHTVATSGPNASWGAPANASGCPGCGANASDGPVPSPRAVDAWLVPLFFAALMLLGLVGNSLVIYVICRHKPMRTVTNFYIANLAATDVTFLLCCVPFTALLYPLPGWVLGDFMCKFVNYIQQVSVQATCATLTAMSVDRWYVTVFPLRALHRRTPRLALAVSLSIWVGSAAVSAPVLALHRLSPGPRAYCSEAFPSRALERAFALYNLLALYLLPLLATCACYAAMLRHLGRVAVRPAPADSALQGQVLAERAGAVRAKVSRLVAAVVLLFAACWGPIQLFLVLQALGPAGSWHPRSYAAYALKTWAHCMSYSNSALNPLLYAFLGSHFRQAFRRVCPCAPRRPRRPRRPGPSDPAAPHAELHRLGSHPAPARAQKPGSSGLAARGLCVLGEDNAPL
Assay: hOT7T175 receptor binding activity: binding inhibition of Cy-5-labeled metastin (40-54) on hOT7T175-expressed CHO cells
Square brackets hold non-standard residues; d marks the D form. Peptide text beside a SMILES is read from it. Arg(Me) = CNC(=N)NCCC[C@H](N)C(=O)O; azaGly = NNC(=O)O
Provide the reported IC50 of each item.
All answers are understood in nM, so give the number only.

In: Report IC50 for CC(C)C[C@H](NC(=O)CNC(=O)[C@H](Cc1ccccc1)NC(=O)[C@H](CO)NC(=O)[C@H](CC(N)=O)NC(=O)[C@H](Cc1c[nH]c2ccccc12)NC(=O)[C@H](CC(C)C)NC(=O)[C@@H](N)Cc1ccc(O)cc1)C(=O)N[C@@H](CCCNC(=N)N)C(=O)N[C@@H](Cc1ccccc1)C(N)=O [Compound No. 59] (H-YLWNSFGLRF-NH2)
Out: 340

In: Answer with the recorded IC50 of CNC(=N)NCCC[C@H](NC(=O)[C@H](CC(C)C)NC(=O)NNC(=O)[C@H](Cc1ccccc1)NC(=O)[C@H](CO)NC(=O)[C@H](CC(N)=O)NC(=O)[C@H](Cc1c[nH]c2ccccc12)NC(=O)[C@H](N)Cc1ccc(O)cc1)C(=O)N[C@@H](Cc1ccccc1)C(N)=O [Compound No. 222] (H-[dY]WNSF[azaGly]L[Arg(Me)]F-NH2) only.
Out: 33

In: Give reported IC50 value for CCCC[C@H](NC(=O)CNC(=O)[C@H](Cc1ccccc1)NC(=O)[C@H](CO)NC(=O)[C@H](CC(N)=O)NC(=O)[C@H](Cc1c[nH]c2ccccc12)NC(=O)[C@H](CC(N)=O)NC(=O)[C@@H](N)Cc1ccc(O)cc1)C(=O)N[C@@H](CCCNC(=N)N)C(=O)N[C@@H](Cc1ccccc1)C(N)=O [Compound No. 105]
Out: 880
